Tested on: Fibroblast
Test Details: Multiplex assay against human fibroblast
Assay type: toxicity, cell-based
Condition Context: 24 h, 10 µM, compound concentration 10 uM, replicate 1
# Population Healthy Nuclei (%) listing for each entry below

>  <Compound>
CCOc1cc(N2CCC(O)CC2)ccc1Nc1ncc2c(n1)N(C1CCCC1)CCC(=O)N2C

>  <Population Healthy Nuclei (%)>
62

$$$$
>  <Compound>
CC(C)(C)c1cnc(CSc2cnc(NC(=O)C3CCNCC3)s2)o1

>  <Population Healthy Nuclei (%)>
48

$$$$
>  <Compound>
CCn1c(-c2nonc2N)nc2cnc(Oc3cccc(NC(=O)c4ccc(OCCN5CCOCC5)cc4)c3)cc21 [GSK-269962A]

>  <Population Healthy Nuclei (%)>
42

$$$$
>  <Compound>
Nc1nc2c(c(N3CCNCC3)n1)CCC1=C2[C@@H]2CCCC[C@@H]2O1

>  <Population Healthy Nuclei (%)>
36

$$$$
>  <Compound>
CN(C)C/C=C/C(=O)Nc1cc2c(Nc3ccc(F)c(Cl)c3)ncnc2cc1O[C@H]1CCOC1.O=C(O)/C=C\C(=O)O.O=C(O)/C=C\C(=O)O [AFATINIB DIMALEATE]

>  <Population Healthy Nuclei (%)>
54

$$$$

Values were extracted from ChEMBL document CHEMBL4689842.
